method description: Solubility of tripamide in water, Liquid I or Liquid II of the Japanese Pharmacopeia (37° C., 5 days, absorbancy method)
Type: physicochemical
cond: jp liquid i, pH 1.2; Liquid I of the Japanese Pharmacopeia, pH about 1.2; 37° C., 5 days; as tripamide; Experiment 2; read-out: Solubility (mg/ml), Japanese Pharmacopeia Liquid I
measurement label: solubility at 120 h (mg/mL)

[[record]]
molecule = "NS(=O)(=O)c1cc(C(=O)NN2C[C@@H]3[C@@H]4CC[C@@H](C4)[C@@H]3C2)ccc1Cl [Tripamide]"
endpoint_value = 0.349


---

method description: Solubility of tripamide in water, Liquid I or Liquid II of the Japanese Pharmacopeia (37° C., 5 days, absorbancy method)
Format: physicochemical
cond: Water; 37° C., 5 days; as tripamide; Experiment 2; read-out: Solubility (mg/ml), Water
measurement label: solubility at 120 h

[[record]]
compound = "NS(=O)(=O)c1cc(C(=O)NN2C[C@@H]3[C@@H]4CC[C@@H](C4)[C@@H]3C2)ccc1Cl [Tripamide]"
endpoint_value = "0.0094 mg/mL"

